- System: NCI-H23 lung
- ASSAY PROCEDURE: NCI-60 one-dose screen, 48 h (100 = growth as untreated, 0 = no growth, -100 = all killed)
- SETUP CONDITIONS: 10 µM
Compounds without any hit were thinned out: in the full panel of roughly 83,000, 20% have a hit.
# if measured growth < 90%: yes (1)  # else: no (0)

Solved cases below.
{"MOLECULE": "CN(C)CC1(N)C(=O)NC(=O)NC1=O", "TARGET DESC": "NCI-H23 lung", "CAT": "no (0)"}
{"MOLECULE": "CC(=O)[O][Hg][c]1c(C)c(C)cc(C)c1C", "TARGET DESC": "NCI-H23 lung", "CAT": "yes (1)"}
{"MOLECULE": "COC(C(=O)C(O)C(C)O)C1Cc2cc3cc(OC4CC(OC(C)=O)C(OC5CC(O)C(OC)C(C)O5)C(C)O4)cc(O)c3c(O)c2C(=O)C1OC1CC(OC2CC(OC3CC(C)(O)C(OC(=O)C(C)C)C(C)O3)C(O)C(C)O2)C(O)C(C)O1 (stereo unspecified)", "TARGET DESC": "NCI-H23 lung", "CAT": "yes (1)"}

Is the reported growth for N#CCc1ccccc1 strictly below 90%?
no (0)

Same thing, different molecule: CC/C(=C/c1ccc(OC)cc1OC)[N+](=O)[O-]
yes (1)
